B1: glmS ribozyme (parent)
chain: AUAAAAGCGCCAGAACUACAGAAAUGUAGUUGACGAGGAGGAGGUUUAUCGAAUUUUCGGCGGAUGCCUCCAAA

# Variants of: B1
# Method Notes: self-cleavage kobs at 10000 uM GlcN6P; higher = faster cleavage; RNA array
# Applied Conditions: with glucosamine-6-phosphate
Fewer inactive variants are shown than the library holds.
Rule: self-cleavage kobs at 10000 uM GlcN6P under 0.0001 s⁻¹ gives 0 (no), otherwise 1 (yes).

Solved cases (6 shown):
Ask: In plain terms: is recorded self-cleavage kobs at 10000 uM GlcN6P at least 0.0001 s⁻¹ for U30C A64C ?
Reply: 0 (no)

Ask: In plain terms: is recorded self-cleavage kobs at 10000 uM GlcN6P at least 0.0001 s⁻¹ for C10U A36U ?
Reply: 0 (no)

Ask: In plain terms: is recorded self-cleavage kobs at 10000 uM GlcN6P at least 0.0001 s⁻¹ for A36U U49A A53U ?
Reply: 0 (no)

Ask: In plain terms: is recorded self-cleavage kobs at 10000 uM GlcN6P at least 0.0001 s⁻¹ for U45G A53G A64U ?
Reply: 0 (no)

Ask: In plain terms: is recorded self-cleavage kobs at 10000 uM GlcN6P at least 0.0001 s⁻¹ for G13C G35U U47C A48C C61G C70U ?
Reply: 0 (no)

Ask: In plain terms: is recorded self-cleavage kobs at 10000 uM GlcN6P at least 0.0001 s⁻¹ for G38C G43C G59C ?
Reply: 0 (no)

New cases:
Ask: In plain terms: is recorded self-cleavage kobs at 10000 uM GlcN6P at least 0.0001 s⁻¹ for C8A G13U ?
Reply: 0 (no)

Ask: In plain terms: is recorded self-cleavage kobs at 10000 uM GlcN6P at least 0.0001 s⁻¹ for C8G U30G G60A ?
Reply: 0 (no)

Ask: In plain terms: is recorded self-cleavage kobs at 10000 uM GlcN6P at least 0.0001 s⁻¹ for A14U C50U ?
Reply: 0 (no)

Ask: In plain terms: is recorded self-cleavage kobs at 10000 uM GlcN6P at least 0.0001 s⁻¹ for G35C A42G U49A G66C ?
Reply: 0 (no)

Ask: In plain terms: is recorded self-cleavage kobs at 10000 uM GlcN6P at least 0.0001 s⁻¹ for C34A G66U ?
Reply: 0 (no)
